Cited source: patent US20260248791A1

Assay: clinical
Details: human, in vivo
Parameter: half-life

Query block: Quick one: half-life for "Cn1cc(Nc2nccc(N3C[C@H]4CC[C@@H](C3)N4C(=O)[C@@H]3CC3(F)F)n2)cn1" ?
Result block: 4 to 8 h

----------
Assay: clinical
Details: human, in vivo, bioavailability of tablets relative to solution
Parameter: bioavailability

Query block: Recorded bioavailability for Cn1cc(Nc2nccc(N3C[C@H]4CC[C@@H](C3)N4C(=O)[C@@H]3CC3(F)F)n2)cn1 [Brepocitinib] , please?
Result block: ~96%
